# credit: the supplement of paper PMC10567573

Record form. Attribute: protein stability index. Fill in for each entry.
B1: ARL6IP1 (parent)
chain: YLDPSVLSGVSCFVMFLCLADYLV

Variants of: B1
Assay: protein stability index of a GFP-peptide fusion (GPS, HEK-293T) (PSI 1-6); higher = more stable;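 note: lentivirally expressed fusions sorted by FACS into six bins by GFP to DsRed ratio, PSI derived from sequencing read proportions per bin multiplied by bin number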
Conditions: c terminus: a fixed tail appended
Numbers only.

Would you mind listing protein stability index for each of the following variants?
1. L23W
2. V14A
3. D3P

(A)
2.07
2.62
3.06

Would you mind listing protein stability index for each of the following variants?
1. S5K
2. L19R
3. V10S
4. L17M
5. C12D
6. V24Y
7. Y1H

(A)
1. 3.47
2. 2.38
3. 3.4
4. 4.66
5. 3.35
6. 2.16
7. 3.89

(Q) What protein stability index value was documented for this variant, V10A ?
(A) 3.22
